molecular target: H-2Kb on the surface of RMA-S cells (mouse (endogenous in RMA-S)); test: stabilisation of Kb on RMA-S cells
OBSERVATION_TYPE: relative efficiency of peptide-binding to Kb (parent OVA55-62 = 1)

>  <BINDER>
SVVRFDKL [OVA55-62/P1K->S]

>  <NUMERIC_RESULT>
2

$$$$

[I] KVVRFEKL [OVA55-62/P6D->E]
[II] KVVNFDKL [OVA55-62/P4R->N]
[III] KVIRFDKL [OVA55-62/P3V->I]
Enquiry: Arrange the 3 binders by rising relative efficiency of peptide-binding to Kb (parent OVA55-62 = 1), starting with the smallest. Provide the ranking by listing each label in its place in the requested order.
Return: III, II, I
(III: 1, II: 2, I: 10)
